- TARGET_OR_TEST_SYSTEM: human CCR10 (Homo sapiens, UniProt P46092)
- Construct: expressed in transfected cells; host or cells: KJMGER8 cell (cell line derived from Namalwa cell); expression induced with 10 nmol/L β-estradiol
- Sequence (P46092 whole entry): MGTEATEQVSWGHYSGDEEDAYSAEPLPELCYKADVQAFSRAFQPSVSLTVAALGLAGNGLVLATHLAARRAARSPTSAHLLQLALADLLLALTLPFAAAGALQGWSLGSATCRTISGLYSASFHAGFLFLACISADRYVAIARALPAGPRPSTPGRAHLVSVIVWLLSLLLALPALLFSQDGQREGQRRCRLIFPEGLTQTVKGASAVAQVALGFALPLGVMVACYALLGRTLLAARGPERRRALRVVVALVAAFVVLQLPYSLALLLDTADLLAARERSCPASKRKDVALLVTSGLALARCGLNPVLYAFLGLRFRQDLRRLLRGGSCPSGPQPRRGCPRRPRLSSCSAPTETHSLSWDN
- EXPERIMENT_SUMMARY: Calcium assay of human CCR10 (inhibition of CTACK-induced increase in intracellular calcium ion concentration in hCCR10G16 cells)
- Assay type: cell-based
- REPORTED_CONDITIONS: test compound 100 nmol/L; human recombinant CTACK; hCCR10G16 cells (KJMGER8/Namalwa-derived, Gα16 co-expressed); FLIPR or FDSS; read-out: Inhibitory rate (%) for an increase in calcium ion concentration
Here the recorded inhibition at 0.1 µM is given for each entry.
MEASURE: inhibition at 0.1 µM

{"columns": ["COMPOUND_STRUCTURE", "MEASURE", "TEST_RESULT"],
 "data": [
  ["Cc1cc(F)ccc1Nc1c(C(=O)N2CCC(c3ccccc3)CC2)cnc2c(S(=O)(=O)NC(=O)C(F)(F)F)cnn12", "inhibition at 0.1 µM", "> 100%"],
  ["CC(=O)NS(=O)(=O)c1cnn2c(Nc3cccc(Cl)c3Cl)c(C(=O)N3CCC(c4ccc(F)cc4)CC3)cnc12", "inhibition at 0.1 µM", "> 100%"],
  ["Cc1ccc(F)c(Nc2c(C(=O)N3CCC(c4ccc(F)cc4)CC3)cnc3c(S(=O)(=O)NC(=O)NC4CC4)cnn23)c1", "inhibition at 0.1 µM", "> 100%"]
]}
